All figures here come from ChEMBL document CHEMBL3108662.

Entries annotated with measured Drug degradation
test: Drug degradation in H2O/D2O assessed as byproduct formation at 37 degC by 1H-NMR spectroscopic analysis; format: physicochemical

See these solved cases before continuing.
- COCCOCCOCCOC(=O)CN1C(=O)C2(C)C=CC1OO2 (centres undefined): 20%
- COCCOCCOCCOC(=O)CN1C(=O)C2(C)C=CC1(C)OO2 (centres undefined): > 50%
- COCCOCCOCCOC(=O)CN1C(=O)C2C=CC1(C)OO2 (centres undefined): > 50%

Here's the next entry for you.
Reported Drug degradation for COCCOCCOCCOC(=O)CN1C(=O)C2(C)C=C(C)C1(C)OO2 (centres undefined) was > 50%
